test system: TO-N3 (biotin conjugate); test: pull-down binding Z-score (relative to library population); higher = stronger binding; conditions: RNA library: Library-2
# label = MET if pull-down binding Z-score >= 0.1 else NOT MET

Solved entries (count: 3):
>>> group_label("AUUACUGCAAAAUGGUAUGAAUGGACGUACCAUAUUGGGUAGU [DMSMaPseq_invitro_SARS-CoV-2_Motif_194]")
"NOT MET"
>>> group_label("AGACAGCCUGAGUUGGAGGCUCAUCUUCACUUCUUGCUGUGU [hsa-mir-3168]")
"MET"
>>> group_label("GUAUCUGAAUUAC")
"NOT MET"

Quick check, pull-down binding Z-score >= 0.1? AUGGUUUAGAGUUACACCCUGGGAGUUAACUGU [hsa-let-7c] MET

###

tested on: TO-3-N3 (biotin conjugate); assay: pull-down binding Z-score (relative to library population); higher = stronger binding; conditions: RNA library: Library-2
Measure: pull-down binding Z-score
Respond with the number and no other words.

>>> recorded_measurement("UUUACAUAUAAAUUUCUAUUUGU [hsa-mir-4503]")
0.81
>>> recorded_measurement("AUGUACUUGGAUUGGCUGCAAUCAUGCAAUUGUUUUUCAGCUAUUUUGCAGUACAU")
-0.182
>>> recorded_measurement("CAUUUGUAGUUUCAACUGGAUACCACUUCAGAGAGCUAGGUGUUGUACAUAAUCAGGAUGUAAACUUACAUAGCUCUAGACUUAGUUUUAAGGAAUUACUUGUG")
-0.927

Missing value: pull-down binding Z-score, TO-3-N3 (biotin conjugate), entry GUGUUAUAACAC . Fill in? -0.176

Here is the next sequence: GCGCUGCCAGAAACUGGCUUUAGCGC [bulge-UUU] -0.00635

Follow-up item: AAGCUGAUGAGUACGAACUUAUGUACUCAUUCGUUU -0.634

Next entry: CUUGGGCCCAUUCCUUUCCUUACCCUAC [hsa-mir-6798] 0.268

What do you have for CAUACAUUUUGAAUAUGUAUG [hsa-mir-299] ? 0.734

Can you handle UGCGAGAAAUGCUUGCA [SHAPE_invitro_SARS-CoV-2_Motif_85] next? 1.12

One more sequence: UUUGCGUUACUUUCAAUCGUAAA [hsa-mir-548x] -1.01

And what about the sequence UGGUGGGGGCCGGGGCAGGCCCAGCGAAA [hsa-mir-648] ? 1.96

Please do the same for UCAGGUGAAUGUGUCUGG [hsa-mir-3916] as well. -0.539

Can you check GCUACUGUCUGCACCUGUCACUAGCAGU [hsa-mir-130a] next? -0.279

And then UAAGGAGAGUGUUCAGACAUUCUUUAAGCUUG [DMSMaPseq_invitro_SARS-CoV-2_Motif_43] , what is it? -0.408

Please do the same for UCACAGGGCUCAGGGAAUGUGUCUGCACCUGUGA [hsa-mir-587] as well. 0.431

###

system: TO-N3-2 (biotin conjugate); assay: pull-down binding Z-score (relative to library population); higher = stronger binding; settings: RNA library: Library-2
Measure: pull-down binding Z-score
Field format: numeric only.

In the examples that follow, each entry is paired with its recorded pull-down binding Z-score.
>>> recorded_measurement("CUGUGUGAGGACUAGAGGCGG [hsa-mir-4523]")
1.05
>>> recorded_measurement("GUUUUAAUUAUGCUUAUUAUCUUUUGGUUCUCACUUGAACUGCAAGAUCAUAAUGAAAC")
-1.02
>>> recorded_measurement("CAGGAUUAGUGCUUAUGCUAAGAUGUCUUCACUG [hsa-mir-6773]")
-0.301

Reported pull-down binding Z-score, sequence AGUGGACGAGUCUCAUUA [hsa-mir-3193] : ____ 0.613

Next sequence up: CCCGAGGCCCUUCAUGCUGCCCAGCUCGGG [hsa-mir-486-1] 1.19

Here is the next sequence: GCAGUAUAAUUAAUAACUAAUUACUGU [SARS-CoV-2-Conserved-Structured-36_Interval-120-237_Motif_1] -1.31

Param item: GAUUGGUCUGUGGUCCUCUC [hsa-mir-3615] 0.498

Then what about the sequence GGAGCUCAGCACCUGCCUGCCACCCACGCAGACCAGCCCCUGCUCUGUUCCCACAG [hsa-mir-4648] ? 1.9

Record: UUCUUUUUUCUGAAAUUCUUCAGGAAGGA [hsa-mir-3167] -0.017

Request: AGGCCGUUGCCAAUCAGAGAACGGCUA [hsa-mir-138-1] 1.43

Item: UGUUUCUUUAUUGAGGACGAAACA [hsa-mir-329-2] -0.89

Note, next up: CCUGAUGAAUCUGAGGCCAGG [hsa-mir-577] 0.326
